Entry source: patent US20220259593A1

- Tested on: K562 CRISPRi cells
- assayText: Perturb-seq pooled growth measurement (sgRNA counts, growth phenotype γ, relative activity)
- Assay type: cell-based, human
- experimentalConditions: pooled growth phenotype γ of the Perturb-seq sgRNA, day 10, K562 CRISPRi cells
measurementName: gamma_day10
// no unit, no text: just the number

// worked examples, gamma_day10 included
RPS14_ + _149829238.23-P1P2_13 (guide GAGGCCCGGGCGCGACAGTC; listed as DNA, chemistry not fully specified)	−0.1559
POLR1D_ + _28196016.23-P1_03 (guide GGTAAGCAAGGACCGACCGA; listed as DNA, chemistry not fully specified)	−0.6833
CDC23_ −_137548987.23-P1P2_04 (guide GACAGCCAACGGGACCATGG; listed as DNA, chemistry not fully specified)	−0.5364
COX11_ + _53045977.23-P1P2_00 (guide GGCTCTGGCGTCCTGGATGG; listed as DNA, chemistry not fully specified)	−0.2988

// moving on: another record for gamma_day10
Recorded gamma_day10 for TUBB_ + _30688126.23-P1_10 (guide GCGGCAGGAAGGTTCAGAGA; listed as DNA, chemistry not fully specified) , please? −0.1451
